# target-or-test-system: CDK2/cyclin A (Homo sapiens, UniProt P24941)
# Construct: cyclin A: E. coli, then limited proteolysis
# assay-details: Inhibition of CDK2/Cyclin A retinoblastoma kinase activity
# condition-context: apparent Ki, Rb fragment substrate
Recorded Ki for the following compounds
Reply with just the number (in nM).

## Task Sample `CC(C)OCCCNS(=O)(=O)c1ccc(Nc2nc(N)c(C(=O)c3c(F)cccc3F)s2)cc1` — what was its Ki?
## Result 2.2

## Task Any idea what its Ki is? The compound is `NC(=O)CSc1cccc(Nc2nc(N)c(C(=O)c3c(Cl)cccc3Cl)s2)c1`
## Result 92

## Task So what does the record say about Ki for `Nc1nc(Nc2ccc(S(=O)(=O)NC3CCNCC3)cc2)sc1C(=O)c1c(F)cccc1F` ?
## Result 13

## Task Ki lookup needed for `Nc1nc(Nc2ccc(SCCO)cc2)sc1C(=O)c1c(Cl)cccc1Cl` , thanks.
## Result 140

## Task Ki for `Nc1nc(Nc2ccc(S(=O)(=O)NCc3cccs3)cc2)sc1C(=O)c1c(F)cccc1F` ?
## Result 4.6

## Task Requested read-out: Ki. Entry: Nc1nc(Nc2ccc(S(=O)(=O)NCC3CCCCN3)cc2)sc1C(=O)c1c(F)cccc1F (centres unmarked)
## Result 45

## Task Which measured Ki value corresponds to `Nc1nc(Nc2ccc(Sc3ccccn3)cc2)sc1C(=O)c1c(Cl)cccc1Cl` ?
## Result 500

## Task # get_value(readout='Ki', item= C[S+]([O-])c1ccc(Nc2nc(N)c(C(=O)c3c(Cl)cccc3Cl)s2)cc1 (centres unmarked) )
## Result 303

## Task Form field: reported Ki of `NC(=O)CSc1ccc(Nc2nc(N)c(C(=O)c3c(Cl)cccc3Cl)s2)cc1`
## Result 66

Attention now turns to another entry.
## Task # input compound: `Nc1nc(Nc2ccc(S(=O)(=O)NCCCN3CCCCC3)cc2)sc1C(=O)c1c(F)cccc1F` ; wanted: its Ki
## Result 6
